Each entry below lists one item and its recorded protein stability index value.
B1: DYRK1B (parent)
chain: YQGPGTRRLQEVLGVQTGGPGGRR

Variants of: B1
Experiment: protein stability index of a GFP-peptide fusion (GPS, HEK-293T) (PSI 1-6); higher = more stable;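 further: lentivirally expressed fusions sorted by FACS into six bins by GFP to DsRed ratio, PSI derived from sequencing read proportions per bin multiplied by bin number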
Settings: c terminus: a fixed tail appended
Would you mind answering with just the numeric figure?

Some entries whose results are on file:
>>> observed("G21L")
3.18
>>> observed("G5Q")
4.42
>>> observed("V15M")
2.24
>>> observed("T6D")
3.79
>>> observed("R23H")
3.1

Using the record for `G22R` , report its protein stability index.
2.7

Report protein stability index for `G21H` please.
3.33

Fill blank: measured protein stability index of the variant `G5P` is ____.
2.8

Source of measurements: the supplement of paper PMC10567573
